B1: Azoarcus group I ribozyme (parent)
chain: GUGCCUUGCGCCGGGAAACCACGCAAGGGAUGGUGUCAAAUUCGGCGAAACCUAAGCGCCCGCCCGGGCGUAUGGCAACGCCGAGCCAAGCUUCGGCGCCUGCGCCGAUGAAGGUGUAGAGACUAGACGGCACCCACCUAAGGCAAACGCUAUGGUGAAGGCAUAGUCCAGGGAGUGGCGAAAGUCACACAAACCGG

Variants of: B1
Assay: reverse-splicing fitness (ratio to wild type); higher = more active; in vitro selection; Mg2+ level not given
Each item that follows carries a reported reverse-splicing fitness.
property_measured: reverse-splicing fitness

var: C82G A111U A120G A145G C150A C169U U176G
property_measured: reverse-splicing fitness
obs_value: 0.00642
--
var: C82G A111U A120U A145G C169U U176C
property_measured: reverse-splicing fitness
obs_value: 0.004
--
var: C82U A111C A120G A145C C150G C169A
property_measured: reverse-splicing fitness
obs_value: 0.00748
--
var: C82U A111U A145C C150A C169U
property_measured: reverse-splicing fitness
obs_value: 0.00873
--
var: C82A A111U A120G A145C C169U U176G
property_measured: reverse-splicing fitness
obs_value: 0.00478
--
var: C82A A120G A145C C150U C169A U176A
property_measured: reverse-splicing fitness
obs_value: 0.0121
--
var: C82A A145U C150U C169A U176C
property_measured: reverse-splicing fitness
obs_value: 0.00936
--
var: C82G A120C A145G
property_measured: reverse-splicing fitness
obs_value: 0.21
--
var: C82U A111G A120U A145U C150G C169A U176C
property_measured: reverse-splicing fitness
obs_value: 0.00216
--
var: C82U A111G A120G A145U C169G
property_measured: reverse-splicing fitness
obs_value: 0.0113
--
var: C82G A111G A120G A145U C150G C169G U176C
property_measured: reverse-splicing fitness
obs_value: 0.00676
--
var: A111G A120C A145U C150G C169A U176C
property_measured: reverse-splicing fitness
obs_value: 0.00745
--
var: C82A A111U A120G C169G U176G
property_measured: reverse-splicing fitness
obs_value: 0.00439
--
var: C82A A120U C150G C169A
property_measured: reverse-splicing fitness
obs_value: 0.00708
--
var: A111G A120G A145C C150A C169G
property_measured: reverse-splicing fitness
obs_value: 0.0196
--
var: A111C A145G C150G C169A U176G
property_measured: reverse-splicing fitness
obs_value: 0.00766
--
var: C82A A111U A145U C150A C169A U176C
property_measured: reverse-splicing fitness
obs_value: 0.0138
--
var: C82G A111C A120U A145G C150G C169U
property_measured: reverse-splicing fitness
obs_value: 0.00758
--
var: A145G U176C
property_measured: reverse-splicing fitness
obs_value: 0.91
--
var: C82A A111C A120G A145G C150A C169U U176C
property_measured: reverse-splicing fitness
obs_value: 0.0139
--
var: C82U A111U A120G A145U C150A U176C
property_measured: reverse-splicing fitness
obs_value: 0.0112
--
var: A111G A120G A145U C150U C169G U176C
property_measured: reverse-splicing fitness
obs_value: 0.0783
